# target.of.assay: Metabotropic glutamate receptor 1 (Homo sapiens)
# test.details: Positive allosteric modulatory activity at human mGlu1 receptor expressed in wild type T-Rex293 cells assessed as increase in glutamate-induced calcium mobilization pre-incubated for 2.5 mins before glutamate stimulation for 1 min relative to glutamate alone
# Format: functional, cell-based
# Sequence (Q13255 19-1194 limits assumed): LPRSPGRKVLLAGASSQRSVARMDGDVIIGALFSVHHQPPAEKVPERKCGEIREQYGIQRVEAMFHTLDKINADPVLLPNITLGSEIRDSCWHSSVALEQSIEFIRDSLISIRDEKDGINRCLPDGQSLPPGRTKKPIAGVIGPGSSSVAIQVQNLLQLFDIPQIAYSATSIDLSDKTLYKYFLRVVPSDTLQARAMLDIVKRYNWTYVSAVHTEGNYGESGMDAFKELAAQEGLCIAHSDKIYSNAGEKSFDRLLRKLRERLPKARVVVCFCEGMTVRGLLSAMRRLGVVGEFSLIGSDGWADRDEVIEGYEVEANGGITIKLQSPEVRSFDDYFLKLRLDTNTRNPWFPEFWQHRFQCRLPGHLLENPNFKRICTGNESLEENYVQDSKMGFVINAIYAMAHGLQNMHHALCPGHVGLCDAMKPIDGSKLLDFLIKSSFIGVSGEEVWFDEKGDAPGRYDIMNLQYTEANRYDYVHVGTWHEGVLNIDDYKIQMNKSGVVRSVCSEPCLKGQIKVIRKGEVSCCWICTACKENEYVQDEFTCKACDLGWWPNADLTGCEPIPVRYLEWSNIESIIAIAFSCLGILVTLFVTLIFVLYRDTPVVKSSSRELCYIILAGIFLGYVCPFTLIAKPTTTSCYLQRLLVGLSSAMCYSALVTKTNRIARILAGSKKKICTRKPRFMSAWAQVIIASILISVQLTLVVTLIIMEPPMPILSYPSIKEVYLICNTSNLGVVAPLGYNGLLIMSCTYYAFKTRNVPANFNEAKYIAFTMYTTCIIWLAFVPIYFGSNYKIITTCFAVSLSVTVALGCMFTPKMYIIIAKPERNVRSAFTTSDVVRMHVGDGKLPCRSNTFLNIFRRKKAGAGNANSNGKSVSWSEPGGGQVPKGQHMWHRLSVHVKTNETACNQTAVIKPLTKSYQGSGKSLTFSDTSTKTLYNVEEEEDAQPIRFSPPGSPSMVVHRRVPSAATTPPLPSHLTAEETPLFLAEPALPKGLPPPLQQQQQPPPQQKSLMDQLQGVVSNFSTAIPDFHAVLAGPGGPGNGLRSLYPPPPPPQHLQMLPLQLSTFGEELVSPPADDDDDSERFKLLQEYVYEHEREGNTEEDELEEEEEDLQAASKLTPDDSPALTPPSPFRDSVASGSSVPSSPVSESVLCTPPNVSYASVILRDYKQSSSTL

item.smiles	%max, %
Cc1ccoc1C(=O)Nc1ccc(NC(=O)c2ccccc2C(=O)O)c(Cl)c1	108
Cc1ccoc1C(=O)Nc1ccc(N2CCc3ccccc3C2)c(Cl)c1	107
Cc1ccoc1C(=O)Nc1ccc(N2Cc3c(cccc3C(F)(F)F)C2=O)c(Cl)c1	105
Cc1ccoc1C(=O)Nc1ccc(N2Cc3cccc(Cl)c3C2=O)c(Cl)c1	108
Cc1ccc2c(c1)C(=O)N(c1ccc(NC(=O)c3occc3C)c(F)c1)C2=O	70
Cc1ccoc1C(=O)Nc1ccc(N2C(=O)Cc3ccccc3CC2=O)c(Cl)c1	95
Cc1ccoc1C(=O)Nc1ccc(N2Cc3c(F)cccc3C2=O)c(Cl)c1	82
Cc1ccoc1C(=O)Nc1ccc(N2Cc3c(Br)cccc3C2=O)c(Cl)c1	99
Cc1ccoc1C(=O)Nc1ccc(N2CCOc3ccccc32)c(Cl)c1	99
Cc1ccoc1C(=O)Nc1ccc(N2CCOc3ncccc32)c(Cl)c1	93
Cc1ccoc1C(=O)Nc1ccc(N2Cc3cccc(Cl)c3C2=O)c(Cl)c1Cl	81
Cc1ccoc1C(=O)Nc1ccc(N2C(=O)c3ccccc3C2(C)C)c(Cl)c1	76
Cc1scnc1C(=O)Nc1ccc(N2Cc3cccc(Cl)c3C2=O)c(Cl)c1	69
Cc1cccnc1C(=O)Nc1ccc(N2Cc3c(Cl)cccc3C2=O)c(Cl)c1	97
Cc1scnc1C(=O)Nc1ccc(N2Cc3c(Cl)cccc3C2=O)c(Cl)c1	66
Cc1ccoc1C(=O)Nc1ccc(N2Cc3cccnc3C2)c(Cl)c1	78
Cc1ccoc1C(=O)Nc1ccc(N2C(=O)Cc3ccccc3C2=O)c(Cl)c1	105
Cc1ccoc1C(=O)Nc1ccc(N2Cc3c(C)cccc3C2=O)c(Cl)c1	89
Cc1ccoc1C(=O)Nc1ccc(N2Cc3ccccc3C2=O)c(Cl)c1	91
Cc1ccoc1C(=O)Nc1ccc(N2Cc3c(Cl)cccc3C2=O)cc1	99
Cc1ccoc1C(=O)Nc1ccc(N2Cc3ccccc3C2)c(Cl)c1	95
O=C(Nc1ccc(N2Cc3cccc(Cl)c3C2=O)c(Cl)c1)c1ncccc1Cl	51
Cc1ccoc1C(=O)Nc1ccc(N2Cc3c(Cl)cccc3C2=O)cc1F	86
Cc1ccoc1C(=O)Nc1ccc(N2Cc3ccccc3C2=O)cc1	94

----------
# target.of.assay: Cytochrome P450 2C9 (Homo sapiens, UniProt P11712)
# Sequence (P11712 whole entry): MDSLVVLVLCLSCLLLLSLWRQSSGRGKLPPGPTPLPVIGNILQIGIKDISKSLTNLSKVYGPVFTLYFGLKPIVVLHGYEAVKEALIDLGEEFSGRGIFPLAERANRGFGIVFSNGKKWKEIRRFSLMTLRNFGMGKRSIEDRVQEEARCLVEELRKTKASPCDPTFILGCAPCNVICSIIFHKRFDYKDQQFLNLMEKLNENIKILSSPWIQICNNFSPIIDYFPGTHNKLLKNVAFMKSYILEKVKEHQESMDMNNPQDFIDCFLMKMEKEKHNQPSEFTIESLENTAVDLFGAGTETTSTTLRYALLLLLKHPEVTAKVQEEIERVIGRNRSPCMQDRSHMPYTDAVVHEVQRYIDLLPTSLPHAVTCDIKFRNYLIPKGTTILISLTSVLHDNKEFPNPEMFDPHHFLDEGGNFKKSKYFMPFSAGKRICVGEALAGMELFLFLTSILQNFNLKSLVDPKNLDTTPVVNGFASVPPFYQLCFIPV

item.smiles	IC50
Cc1ccoc1C(=O)Nc1ccc(N2Cc3c(Cl)cccc3C2=O)c(Cl)c1	> 30 µM

----------
# test.details: Intrinsic clearance in human
# Assay type: ADME, organism-based
# setup.conditions: in vivo
property: CLhep predicted (mL/min/kg)

item.smiles	meas.value
Cc1ccoc1C(=O)Nc1ccc(N2C(=O)Cc3ccccc3C2=O)c(Cl)c1	13.5

----------
# target.of.assay: Metabotropic glutamate receptor 1 (Homo sapiens)
# test.details: Positive allosteric modulatory activity at human mGlu1 receptor expressed in wild type T-Rex293 cells assessed as increase in glutamate-induced calcium mobilization pre-incubated for 2.5 mins before glutamate stimulation for 1 min
# Format: functional, cell-based
# setup.conditions: read-out: EC50
# Sequence (Q13255 whole entry): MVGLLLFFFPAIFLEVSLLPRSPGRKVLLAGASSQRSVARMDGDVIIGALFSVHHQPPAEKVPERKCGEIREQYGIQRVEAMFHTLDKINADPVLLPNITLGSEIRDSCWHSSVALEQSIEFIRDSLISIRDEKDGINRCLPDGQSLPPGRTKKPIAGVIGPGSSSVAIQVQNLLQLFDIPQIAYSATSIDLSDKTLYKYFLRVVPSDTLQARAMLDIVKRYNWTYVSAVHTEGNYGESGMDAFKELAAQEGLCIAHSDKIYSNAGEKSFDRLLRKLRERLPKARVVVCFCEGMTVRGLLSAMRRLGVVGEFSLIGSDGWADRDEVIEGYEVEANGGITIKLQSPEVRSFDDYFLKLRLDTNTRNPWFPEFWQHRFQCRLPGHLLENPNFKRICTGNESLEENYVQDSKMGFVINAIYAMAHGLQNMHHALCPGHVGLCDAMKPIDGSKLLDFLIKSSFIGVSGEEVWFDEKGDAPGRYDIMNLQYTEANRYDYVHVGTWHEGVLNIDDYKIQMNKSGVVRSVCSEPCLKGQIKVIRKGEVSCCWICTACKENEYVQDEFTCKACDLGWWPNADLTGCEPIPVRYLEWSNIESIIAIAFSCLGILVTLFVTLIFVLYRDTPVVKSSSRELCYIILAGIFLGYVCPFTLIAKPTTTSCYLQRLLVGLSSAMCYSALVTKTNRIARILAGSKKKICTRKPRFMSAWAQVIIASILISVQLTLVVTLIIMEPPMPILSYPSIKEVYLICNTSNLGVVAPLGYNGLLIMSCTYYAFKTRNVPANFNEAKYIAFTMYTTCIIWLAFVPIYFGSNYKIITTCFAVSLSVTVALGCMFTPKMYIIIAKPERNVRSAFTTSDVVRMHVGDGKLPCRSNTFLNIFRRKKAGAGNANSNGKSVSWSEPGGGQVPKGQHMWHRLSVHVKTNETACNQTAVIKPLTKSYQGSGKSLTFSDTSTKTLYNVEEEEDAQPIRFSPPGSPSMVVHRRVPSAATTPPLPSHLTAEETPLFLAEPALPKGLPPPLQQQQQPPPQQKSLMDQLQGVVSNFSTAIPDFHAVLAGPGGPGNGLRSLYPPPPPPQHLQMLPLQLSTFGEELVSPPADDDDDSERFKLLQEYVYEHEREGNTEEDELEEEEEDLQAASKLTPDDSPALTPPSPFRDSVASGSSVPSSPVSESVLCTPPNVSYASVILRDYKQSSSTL
property: EC50

item.smiles	meas.value
Cc1ccoc1C(=O)Nc1ccc(N2Cc3ncccc3C2=O)c(Cl)c1	> 10 µM
Cc1ccoc1C(=O)Nc1ccc(N2Cc3cccc(Cl)c3C2=O)cc1F	> 10 µM
Cc1ccoc1C(=O)Nc1ccc(N2C(=O)Cc3ccccc3CC2=O)c(Cl)c1	3.5 µM
Cc1ccoc1C(=O)Nc1ccc(N2Cc3nccnc3C2=O)c(Cl)c1	> 10 µM
Cc1ccoc1C(=O)Nc1ccc(N2CCc3ccccc3C2)c(Cl)c1	2.47 µM
Cc1ccoc1C(=O)Nc1ccc(N2C(=O)Cc3ccccc32)c(Cl)c1	> 10 µM
